- system.name: EGFR Del19/T790M/C797S (Homo sapiens, UniProt P00533, C797S/DEL746-750/T790M)
- Sequence (P00533 with tags, fused parts or gaps DEL746-750/T790M/C797S): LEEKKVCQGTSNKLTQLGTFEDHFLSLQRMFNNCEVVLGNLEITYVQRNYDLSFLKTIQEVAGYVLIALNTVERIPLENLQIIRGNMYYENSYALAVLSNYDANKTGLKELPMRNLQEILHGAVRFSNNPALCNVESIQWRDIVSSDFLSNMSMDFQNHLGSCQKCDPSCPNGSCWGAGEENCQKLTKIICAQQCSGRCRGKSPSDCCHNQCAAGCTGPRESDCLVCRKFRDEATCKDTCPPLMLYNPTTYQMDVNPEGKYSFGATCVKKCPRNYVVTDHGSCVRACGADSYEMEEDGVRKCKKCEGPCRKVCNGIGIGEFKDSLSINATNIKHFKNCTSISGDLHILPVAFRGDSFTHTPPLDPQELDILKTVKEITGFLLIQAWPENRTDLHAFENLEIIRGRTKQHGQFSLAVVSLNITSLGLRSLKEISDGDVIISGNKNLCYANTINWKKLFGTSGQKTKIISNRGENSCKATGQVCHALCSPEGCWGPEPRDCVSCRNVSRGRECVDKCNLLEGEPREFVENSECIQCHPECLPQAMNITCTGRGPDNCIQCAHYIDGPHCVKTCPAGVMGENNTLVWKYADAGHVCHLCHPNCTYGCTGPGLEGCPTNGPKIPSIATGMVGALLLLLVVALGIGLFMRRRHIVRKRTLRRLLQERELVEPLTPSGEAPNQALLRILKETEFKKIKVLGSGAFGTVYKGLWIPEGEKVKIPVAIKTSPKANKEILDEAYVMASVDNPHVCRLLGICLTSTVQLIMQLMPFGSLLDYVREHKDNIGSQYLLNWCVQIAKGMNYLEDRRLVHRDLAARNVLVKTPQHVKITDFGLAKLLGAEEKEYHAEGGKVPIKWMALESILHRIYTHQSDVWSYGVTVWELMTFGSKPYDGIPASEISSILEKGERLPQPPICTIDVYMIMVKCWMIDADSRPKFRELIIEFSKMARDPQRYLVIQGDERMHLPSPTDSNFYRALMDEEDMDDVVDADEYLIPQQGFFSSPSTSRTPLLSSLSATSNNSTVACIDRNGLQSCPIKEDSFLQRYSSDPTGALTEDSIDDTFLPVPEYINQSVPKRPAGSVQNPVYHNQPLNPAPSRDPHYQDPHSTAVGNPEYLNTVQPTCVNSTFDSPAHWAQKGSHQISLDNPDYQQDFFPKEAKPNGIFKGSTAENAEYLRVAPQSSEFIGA
- protocol.text: Biochemical EGFR kinase inhibition assay (Lance Ultra TR-FRET), triple mutant del19/T790M/C797S
- run.conditions: IC50 Del19/T790M/C797S (nM), 100 μM ATP
measurement.type: IC50 (nM)

> print(dat)
                                   molecule   val
1  O=S(=O)(C1CC1)n1cc(-c2nccc(Nc3cc(N4C[C@H]5C[C@@]5(CO)C4)c(C#Cc4cnn(C(F)(F)F)c4)cn3)n2)cn1 [Example 333]  17.8
2  Cn1cc(C#Cc2cnc(Nc3ccnc(-c4cnn(S(=O)(=O)C5CC5)c4)n3)cc2N2CCC3(CC2)CC(C)(O)C3)cn1 [Example 13]   1.4
3  O=S(=O)(C1CC1)n1cc(-c2nccc(Nc3cc(N[C@H]4CC[C@@H](O)CC4)c(C#Cc4cnn(C(F)(F)F)c4)cn3)n2)cn1 [Example 102]   2.7
4  CC(C)(C#Cc1cnc(Nc2ccnc(-c3cnn(S(=O)(=O)C4CC4)c3)n2)cc1N[C@H]1CC[C@@H](O)CC1)N1CCOCC1 [Example 230]   5.9
5  O=S(=O)(C1CC1)n1cc(-c2nccc(Nc3cc(NC[C@H]4CC[C@H](O)CC4)c(C#Cc4cnn(C(F)F)c4)cn3)n2)cn1 [Example 307]  29.6
6  CN(C)CCCn1cc(C#Cc2cnc(Nc3ccnc(-c4cnn(S(=O)(=O)C5CC5)c4)n3)cc2N2CCC3(CC2)CC(C)(O)C3)cn1 [Example 152]   0.3
